Reference source for all entries: patent US11339169B2

molecular target: hP2X2/3 (Homo sapiens, UniProt P56373+Q9UBL9); assay: FLIPR intracellular calcium assay, hP2X2/3; conditions: human P2X2/3-TRex293 cells, agonist at EC75
Sequence (P56373 whole entry): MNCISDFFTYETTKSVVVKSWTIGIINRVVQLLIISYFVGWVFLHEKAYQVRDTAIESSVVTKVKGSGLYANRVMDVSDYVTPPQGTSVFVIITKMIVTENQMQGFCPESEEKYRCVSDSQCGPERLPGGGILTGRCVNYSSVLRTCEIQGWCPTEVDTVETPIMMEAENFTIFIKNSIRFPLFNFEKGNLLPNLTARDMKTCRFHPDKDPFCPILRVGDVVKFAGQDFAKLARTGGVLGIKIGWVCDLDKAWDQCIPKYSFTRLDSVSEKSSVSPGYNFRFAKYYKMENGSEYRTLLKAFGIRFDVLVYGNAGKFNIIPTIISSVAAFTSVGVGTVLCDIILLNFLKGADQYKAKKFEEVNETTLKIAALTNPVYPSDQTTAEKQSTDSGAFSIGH
Sequence (Q9UBL9 whole entry): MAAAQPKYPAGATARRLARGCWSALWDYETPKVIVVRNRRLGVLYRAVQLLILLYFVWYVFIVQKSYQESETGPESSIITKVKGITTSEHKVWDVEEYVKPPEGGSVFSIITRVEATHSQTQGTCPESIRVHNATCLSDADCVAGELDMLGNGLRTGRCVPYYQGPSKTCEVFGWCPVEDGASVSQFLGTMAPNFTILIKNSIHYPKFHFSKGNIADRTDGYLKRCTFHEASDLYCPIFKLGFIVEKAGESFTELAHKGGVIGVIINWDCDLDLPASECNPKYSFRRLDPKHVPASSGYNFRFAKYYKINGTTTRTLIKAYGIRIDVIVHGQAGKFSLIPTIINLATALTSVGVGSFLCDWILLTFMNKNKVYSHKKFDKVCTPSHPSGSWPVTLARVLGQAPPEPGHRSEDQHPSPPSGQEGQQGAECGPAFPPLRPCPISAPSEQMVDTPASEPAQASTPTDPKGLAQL
Property label: IC50

Worked cases, IC50 given:
| Molecule | IC50 |
| --- | --- |
| CCC(C)n1ncc2nc(N3CCC(C(N)=O)CC3)nc(N[C@@H](c3cnc4ccccc4c3)C3CC3)c21 (stereo partly shown) | 1000 to 10000 nM |
| CCC(CC)n1ncc2nc(N3CCN(C(C)=O)CC3)nc(NC(C)c3ccc4oc(C)cc4c3)c21 (stereo not shown) | 100 to 1000 nM |
| Cn1cc(-c2nc(N[C@@H](c3cnc4ccccc4c3)C3CC3)c3c(cnn3C3CCOCC3)n2)cn1 | 1000 to 10000 nM |
| CC(=O)N1CCN(c2nc(N[C@H](C)c3cnc4ccccc4c3)c3nn(CC(C)C)cc3n2)CC1 | > 10000 nM |
| CC[C@H](C)n1ncc2nc(N3CCN(C(C)=O)CC3)nc(NC(CO)c3cnc4ccccc4c3)c21 (stereo partly shown) | 100 to 1000 nM |

# lookup: IC50 of CC(=O)N1CCN(c2nc(N[C@H](C)c3cnc4ccccc4c3)c3c(cnn3C3CCC3)n2)CC1
1000 to 10000 nM

Please look up its IC50: CC[C@H](C)n1ncc2nc(N3CCN(C(C)=O)CC3)nc(N[C@H](C)c3cnc4ccccc4c3)c21
100 to 1000 nM
